Please go through the items and note down their growth.
System: MCF7 breast
Test: NCI-60 one-dose screen, 48 h (100 = growth as untreated, 0 = no growth, -100 = all killed)
Settings: 10 µM unless noted
This is part of a sample that, as a whole, favours compounds with a hit. Of some 83,000 tested, about 20% had one in any assay.
One number for each entry, in %.

molecule: c1csc(-c2ccc(CNc3c4ccccc4nc4ccccc34)cc2)c1
growth [%]: -63

molecule: NC(Cc1ccc(O)c([N+](=O)[O-])c1)C(=O)O (stereo unspecified)
growth [%]: 98

molecule: O=c1c2cccc3c(N4CCCC4)ccc(c32)c2nc3ccccc3n12
growth [%]: 50.1

molecule: COc1ccc(Nc2ncc(Br)c(NCCCNC(=O)c3cccs3)n2)cc1
growth [%]: 42.9

molecule: CC1CN(S(=O)(=O)c2oc(-c3ccc(Cl)cc3)nc2C#N)CC(C)O1 (stereo unspecified)
growth [%]: 55.2

# next molecule below
State its growth for this molecule: `O=S(=O)(c1ccccc1)n1cc2c(c1)-c1nc(Nc3ncccn3)sc1CC2` 49.5
